- SUBJECT OF TEST: 3-oxoacyl-[acyl-carrier-protein] synthase 3 (Escherichia coli)
- RUN DESCRIPTION: Inhibitory activity against FabH from Escherichia coli ANSI at 100 uM
Active and inactive are the calls of the source. The rule behind the calls is not given here.
VALUE TYPE: inhibition

INSERT INTO measurements (molecule, result) VALUES
  ('CC1=C(O)C(C)(Cc2ccc(C(F)(F)F)cc2)SC1=O (centres undefined)', 'inactive'),
  ('CCC(CC)CC1(C)SC(O)=C(C)C1=O (centres undefined)', 'inactive'),
  ('CCCCCCCCC1(C)SC(O)=C(C)C1=O (centres undefined)', '< 30%'),
  ('CC[C@H](C)CC1(C)SC(O)=C(C)C1=O (some centres undefined)', '< 30%'),
  ('CC1=C(O)C(C)(Cc2ccccc2)SC1=O (centres undefined)', 'inactive'),
  ('CCCCCC1(C)SC(O)=C(C)C1=O (centres undefined)', 'inactive'),
  ('C=CCCCCC1(C)SC(=O)C(C)=C1O (centres undefined)', 'inactive'),
  ('CCCCCCC1(C)SC(O)=C(C)C1=O (centres undefined)', 'inactive'),
  ('CC1=C(O)SC(C)(CC(C)C)C1=O (centres undefined)', 'inactive'),
  ('C/C=C/CC1(C)SC(O)=C(C)C1=O (centres undefined)', 'inactive'),
  ('C=CCC1(C)SC(=O)C(C)=C1O (centres undefined)', 'inactive'),
  ('CC(C)=CCC1(C)SC(O)=C(C)C1=O (centres undefined)', 'inactive'),
  ('C=CCCCC1(C)SC(=O)C(C)=C1O (centres undefined)', 'inactive'),
  ('CC1=C(O)C(C)(Cc2ccc(Cl)c(Cl)c2)SC1=O (centres undefined)', '< 30%');

---

- SUBJECT OF TEST: Mycobacterial beta-ketoacyl-[acyl-carrier-protein] synthase III (Mycobacterium tuberculosis)
- Sequence (P9WNG3 whole entry): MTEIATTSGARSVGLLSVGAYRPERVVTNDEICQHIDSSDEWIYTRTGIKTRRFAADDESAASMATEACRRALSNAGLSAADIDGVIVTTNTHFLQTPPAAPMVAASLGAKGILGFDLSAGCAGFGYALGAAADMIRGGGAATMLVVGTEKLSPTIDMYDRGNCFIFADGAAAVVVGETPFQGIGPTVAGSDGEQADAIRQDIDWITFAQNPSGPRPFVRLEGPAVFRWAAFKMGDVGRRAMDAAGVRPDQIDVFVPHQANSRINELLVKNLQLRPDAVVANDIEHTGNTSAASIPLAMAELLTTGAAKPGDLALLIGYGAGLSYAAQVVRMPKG
VALUE TYPE: IC50

INSERT INTO results (molecule, result) VALUES
  ('C=CCCCCCCC1(C)SC(=O)C(C)=C1O (stereo not drawn)', '> 1000 µM'),
  ('CC1=C(O)C(C)(Cc2cccc(C(F)(F)F)c2)SC1=O (stereo not drawn)', '> 1000 µM'),
  ('CC1=C(O)C(C)(C2CCCCC2)SC1=O (stereo not drawn)', '> 100 µM'),
  ('COc1ccccc1CC1(C)SC(O)=C(C)C1=O (stereo not drawn)', '> 100 µM'),
  ('CCCCCCCCC(C)C1(C)SC(O)=C(C)C1=O (stereo not drawn)', '75 µM'),
  ('CCCCCCCCCC1(C)SC(O)=C(C)C1=O (stereo not drawn)', '> 100 µM'),
  ('CC1=C(O)C(C)(Cc2c(Cl)cccc2Cl)SC1=O (stereo not drawn)', '> 1000 µM'),
  ('CC1=C(O)SC(C)(CCC(C)C)C1=O (stereo not drawn)', '> 1000 µM'),
  ('CC1=C(O)C(C)(Cc2ccc([N+](=O)[O-])cc2)SC1=O (stereo not drawn)', '> 1000 µM'),
  ('COc1ccc(CC2(C)SC(O)=C(C)C2=O)cc1 (stereo not drawn)', '> 1000 µM'),
  ('CC1=C(O)C(C)(Cc2cccc(C)c2)SC1=O (stereo not drawn)', '> 1000 µM'),
  ('COc1cccc(CC2(C)SC(O)=C(C)C2=O)c1 (stereo not drawn)', '> 1000 µM'),
  ('CC1=C(O)C(C)(Cc2ccccc2Cl)SC1=O (stereo not drawn)', '> 1000 µM');
